SYSTEM NAME: T1, recombinant human IL-13 (human, UniProt P35225 35-146)
T1 construct: also called rh-IL-13; hIL-13
T1 sequence (P35225 35-146 limits assumed): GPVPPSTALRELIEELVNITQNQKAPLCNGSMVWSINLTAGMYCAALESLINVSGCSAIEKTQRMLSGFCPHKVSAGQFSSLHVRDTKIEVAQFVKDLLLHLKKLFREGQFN
ASSAY OVERVIEW: SPR
MEASUREMENT LABEL: Kd (nM)
The figure you give is taken to be in nM; do not add the unit.

Request: Given the entry BDG38.096 (antibody, V domains shown, IgG1) VH: QMQLVESGGGVVQPGRSLRLSCAASGFEFRTYGMHWVRQAPGKGLEWVAVIWDDGSNTHYADSVKGRFTITRDNSKNTLNLQMNSLRVEDTAVYYCVRAPQWYLTAEAFDLWGQGTMVTVSS VL: SYILTQPPSVSVAPGETARITCGGNLIGARLVHWYQQKPGQAPVLVIYDDSDRPSRIPERFSGSNIGNTATLTISRVEEGDEADYYCQVWDYSSDSMVFGGGTKLTVL , report its measured Kd.
Response: 0.0251

Request: One more binder: BDG38.117 (antibody, V domains shown, IgG1) VH: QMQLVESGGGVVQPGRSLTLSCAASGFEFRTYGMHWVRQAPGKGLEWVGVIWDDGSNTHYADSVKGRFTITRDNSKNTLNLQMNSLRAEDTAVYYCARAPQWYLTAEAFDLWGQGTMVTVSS VL: SYVLTQPPSVSVAPGETATITCGGNLIGAKLVHWYQQKPGQAPVLVIYDDSDRPSRIPERFSGSNIGNTATLTIEDVEAGDEADYYCQVWDYSSDTMVFGGGTKLTVL
Response: 0.0149

Request: One more binder: BDG38.106 (antibody, V domains shown, IgG1) VH: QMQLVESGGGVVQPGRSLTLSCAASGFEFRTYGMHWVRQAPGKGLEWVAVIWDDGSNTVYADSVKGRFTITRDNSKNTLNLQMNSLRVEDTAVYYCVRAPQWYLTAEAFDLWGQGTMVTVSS VL: SYILTQPPSVSVAPGQTATITCGGNLIGSRLVHWYQQKPGQAPVLVIYDDSDRPSRIPERFSGSNIGNTATLTIEDVEEGDEADYYCQVWDHYSDHMVFGGGTKLTVL
Response: 0.0346

Request: One more binder: BDG38.116 (antibody, V domains shown, IgG1) VH: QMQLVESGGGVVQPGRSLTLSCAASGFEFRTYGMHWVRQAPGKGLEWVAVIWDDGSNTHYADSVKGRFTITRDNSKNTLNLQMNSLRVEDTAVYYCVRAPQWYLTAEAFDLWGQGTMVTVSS VL: SYVLTQPPSVSVAPGQTATITCGGNLIGARLVHWYQQKPGQAPVLVIYDDSDRPSRIPERFSGSNIGNTATLTIERVEAGDEADYYCQVWDYYSDTMVFGGGTKLTVL
Response: 0.021

Request: One more binder: BDG38.094 (antibody, V domains shown, IgG1) VH: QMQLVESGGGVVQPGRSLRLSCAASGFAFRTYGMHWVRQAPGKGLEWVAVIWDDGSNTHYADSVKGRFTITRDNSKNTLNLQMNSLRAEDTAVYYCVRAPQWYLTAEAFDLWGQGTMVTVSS VL: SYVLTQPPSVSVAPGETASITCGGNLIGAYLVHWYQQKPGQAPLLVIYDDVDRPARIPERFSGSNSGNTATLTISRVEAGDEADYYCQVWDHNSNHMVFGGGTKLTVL
Response: 0.0138

Request: One more binder: BDG38.098 (antibody, V domains shown, IgG1) VH: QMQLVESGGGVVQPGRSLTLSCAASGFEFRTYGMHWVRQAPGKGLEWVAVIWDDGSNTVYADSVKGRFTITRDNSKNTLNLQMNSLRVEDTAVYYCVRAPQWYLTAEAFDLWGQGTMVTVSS VL: SYVLTQPPSVSVAPGQTATITCGGNLIGARLVHWYQQKPGQAPVLVIYDDSDRPSRIPERFSGSNIGNTATLTISRVEAGDEADYYCQVWDYSSDSMVFGGGTKLTVL
Response: 0.0239

Request: One more binder: BDG38.090 (antibody, V domains shown, IgG1) VH: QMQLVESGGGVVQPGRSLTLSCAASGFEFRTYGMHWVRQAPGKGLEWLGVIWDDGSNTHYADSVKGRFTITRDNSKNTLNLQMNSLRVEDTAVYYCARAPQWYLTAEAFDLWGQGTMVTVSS VL: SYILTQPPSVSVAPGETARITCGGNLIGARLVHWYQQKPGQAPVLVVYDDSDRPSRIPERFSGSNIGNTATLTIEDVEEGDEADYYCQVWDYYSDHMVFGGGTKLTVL
Response: 0.0198

Request: One more binder: BDG38.076 (antibody, V domains shown, IgG1) VH: QMQLVESGGGVVQPGRSLRLSCAASGFAFRTYGMHWVRQAPGKGLEWVAVIWDDGSATHYADSVKGRFTITRDNSKNTLNLQMNSLRAEDTAVYYCVRAPQWYLTAEAFDLWGQGTMVTVSS VL: SYVLTQPPSVSVAPGETASITCGGNMIGGYLVHWYQQKPGQAPLLVIYDDVDRPARIPERFSGSNSGNTATLTISRVEAGDEADYYCQVWDHDTNHMVFGGGTKLTVL
Response: 0.0354

Request: One more binder: BDG38.091 (antibody, V domains shown, IgG1) VH: QMQLVESGGGVVQPGRSLTLSCAASGFEFRTYGMHWVRQAPGKGLEWLGVIWYDGSNTHYADSVKGRFTITRDNSKNTLNLQMNSLRVEDTAVYYCVRAPQWYLTAEAFDLWGQGTMVTVSS VL: SYILTQPPSVSVAPGETATITCGGNLIGSRLVHWYQQKPGQAPVLVIYDDSDRPSRIPERFSGSNIGNTATLTISDVEAGDEADYYCQVWDHYSNHYVFGGGTKLTVL
Response: 0.0604

Request: One more binder: BDG38.112 (antibody, V domains shown, IgG1) VH: QMQLVESGGGVVQPGRSLRLSCAASGFEFRTYGMHWVRQAPGKGLEWLGVIWYDGSNTHYADSVKGRFTITRDNSKNTLNLQMNSLRAEDTAVYYCVRAPQWYLTAEAFDLWGQGTMVTVSS VL: SYILTQPPSVSVAPGQTATITCGGNLIGARLVHWYQQKPGQAPVLVIYDDSDRPSRIPERFSGSNIGNTATLTIERVEEGDEADYYCQVWDYSSDTYVFGGGTKLTVL
Response: 0.0173

Request: One more binder: BDG38.115 (antibody, V domains shown, IgG1) VH: QMQLVESGGGVVQPGRSLTLSCAASGFEFRTYGMHWVRQAPGKGLEWLGVIWYDGSNTHYADSVKGRFTITRDNSKNTLNLQMNSLRAEDTAVYYCVRAPQWYLTAEAFDLWGQGTMVTVSS VL: SYILTQPPSVSVAPGQTATITCGGNLIGARLVHWYQQKPGQAPVLVIYDDSDRPSRIPERFSGSNSGNTATLTISDVEEGDEADYYCQVWDYSSNTYVFGGGTKLTVL
Response: 0.125
